System: HeLa
Test: Primary qHTS to identify gynecologic anti-cancer compounds using libraries of approved drugs and bioactive compounds (AID 1345084); further: on the % scale 0 is the no-effect control and ±100 the full control effect; nearly all actives have a fitted effect of over 55% in size
Details: Gynecologic cancer cell panel viability, ATPlite luminescence, 48 h; series mostly up to 57.5 µM
Description: National Center for Advancing Translational Sciences [NCATS] Assay Overview: Chemotherapeutic drug responses vary from cancer to cancer and from patient to patient. […] ATPlite is a luminescence based assay reliant on the conversion of a luciferase substrate to light in the presence of ATP. As a cytotoxic compound will suppress growth and decrease the number of cells, the concentration of ATP will decrease, and less light signal will be detected in the well. […]
Inconclusive results are not listed. Active and inactive are the calls of the source. The call rests on the fitted dose curve; in most records, active means well fitted cell-killing curve with a large enough effect; inconclusive means small, poorly fitted or top-dose-only effect, or effect the other way; inactive means flat fitted curve, though single readings scatter.
PROPERTY MEASURED: activity change, negative = cytotoxicity

These recorded examples may help you get a feel for the data.
Exam item: May I ask what activity change, negative = cytotoxicity has been recorded for COc1cc(C2Oc3c(OC)cc(CCCO[C@@H]4O[C@H](CO)[C@@H](O)[C@H](O)[C@H]4O)cc3C2CO)ccc1O (some centres undefined) ?
Marked response: inactive

Exam item: May I ask what activity change, negative = cytotoxicity has been recorded for COc1cc(NC(=O)c2ccccn2)ccc1Cl ?
Marked response: inactive

Exam item: May I ask what activity change, negative = cytotoxicity has been recorded for CC(C)CC1(C(=O)OCc2ccc(O[C@@H]3O[C@H](CO)[C@@H](O)[C@H](O)[C@H]3O)cc2)CC(=O)OC(C(=O)O)CC(=O)OCC2OC(O1)C(OC(=O)/C=C/c1ccc(O)cc1)C(O)C2O (some centres undefined) ?
Marked response: 0% [at 11.6 µM] (inactive)

Exam item: May I ask what activity change, negative = cytotoxicity has been recorded for CCC(NC(=O)CC(NC(=O)C(CO)NC(=O)C(CC)NC(=O)c1ccc[nH]1)c1ccccc1)C(=O)O (centres undefined) ?
Marked response: inactive

More entries:
Exam item: May I ask what activity change, negative = cytotoxicity has been recorded for C=C1CC[C@H]2[C@@](C)(CCC(O)[C@@]2(C)CO)[C@@H]1C/C=C(/C(=O)O)C(O)CO (some centres undefined) ?
Marked response: inactive

Exam item: May I ask what activity change, negative = cytotoxicity has been recorded for CC[C@H](/C=C/[C@@H](C)[C@H]1CC[C@H]2[C@@H]3CC=C4C[C@@H](O)CC[C@]4(C)[C@H]3CC[C@]12C)C(C)C ?
Marked response: -1.7% [at 6.55 µM] (inactive)

Exam item: May I ask what activity change, negative = cytotoxicity has been recorded for CC1=CC(=O)C2C(C)(C)CC(O)CC2(C)C1CO (centres undefined) ?
Marked response: inactive

Exam item: May I ask what activity change, negative = cytotoxicity has been recorded for C[C@@H]1O[C@@H](O[C@H]2[C@H](OC(=O)C34CCC5(C)C(=CCC6C7(C)CC(O)C(O[C@@H]8O[C@H](C(=O)O)[C@@H](O)[C@H](O)[C@H]8O)C(C)(C(=O)O)C7CCC65C)C3CC(C)(C)CC4O)O[C@H](C)[C@@H](O)[C@@H]2O)[C@H](O)[C@@H](O[C@@H]2OC[C@](O)(CO)[C@H]2O[C@@H]2O[C@H](CO)[C@@H](O)[C@H](O)[C@H]2O)[C@H]1O (some centres undefined) ?
Marked response: -4.39% [at 6.55 µM] (inactive)

Exam item: May I ask what activity change, negative = cytotoxicity has been recorded for C=CC1(C)CC(OC(=O)C(=C)C(O)COC(C)=O)C(C(=C)C(=O)OC)C(O)C1C(=C)CO (centres undefined) ?
Marked response: inactive
